Molecular target: Mucosa-associated lymphoid tissue lymphoma translocation protein 1 (Homo sapiens)
Sequence (Q9UDY8 whole entry): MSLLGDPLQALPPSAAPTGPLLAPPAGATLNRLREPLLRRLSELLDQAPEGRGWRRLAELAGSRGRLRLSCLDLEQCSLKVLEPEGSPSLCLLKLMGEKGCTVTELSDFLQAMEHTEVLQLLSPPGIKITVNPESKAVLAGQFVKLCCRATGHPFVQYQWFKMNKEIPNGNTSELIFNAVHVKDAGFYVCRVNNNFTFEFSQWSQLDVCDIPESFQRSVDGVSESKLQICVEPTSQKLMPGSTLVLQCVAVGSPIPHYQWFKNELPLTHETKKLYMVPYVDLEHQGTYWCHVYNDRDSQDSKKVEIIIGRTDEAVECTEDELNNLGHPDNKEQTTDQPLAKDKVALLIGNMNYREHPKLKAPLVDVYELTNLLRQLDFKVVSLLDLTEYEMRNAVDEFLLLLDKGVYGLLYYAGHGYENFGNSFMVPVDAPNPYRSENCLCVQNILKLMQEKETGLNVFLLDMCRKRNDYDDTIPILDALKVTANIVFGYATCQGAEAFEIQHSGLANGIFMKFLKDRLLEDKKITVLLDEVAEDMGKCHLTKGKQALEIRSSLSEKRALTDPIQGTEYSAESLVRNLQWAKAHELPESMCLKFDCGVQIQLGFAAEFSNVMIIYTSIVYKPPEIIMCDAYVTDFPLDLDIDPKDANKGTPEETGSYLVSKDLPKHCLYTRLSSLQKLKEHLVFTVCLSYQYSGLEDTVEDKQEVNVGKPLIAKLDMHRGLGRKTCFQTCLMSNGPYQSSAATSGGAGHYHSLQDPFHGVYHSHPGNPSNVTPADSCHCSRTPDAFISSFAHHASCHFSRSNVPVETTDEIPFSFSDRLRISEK
Assay: MALT-1 Inhibition Assay
Please respond with reported IC50 for every item in the list.
Answers are plain numbers, in nM.

compound	study system	IC50 / nM
COc1ccc2ncc(Nc3ccc([C@H](N(C)C(=O)[C@H]4CC[S@+]([O-])CC4)C(F)(F)F)cc3)c([C@H](C)OC)c2n1 (relative stereo) [US20250051327, Reference CPD0072936]	Mucosa-associated lymphoid tissue lymphoma translocation protein 1 (Homo sapiens)	68
COc1ccc2ncc(Nc3ccc([C@H](N(C)C(=O)[C@@H]4CCC(=O)N4)C(F)(F)F)cc3)c([C@H](C)OC)c2n1 (relative stereo) [US20250051327, Reference CPD0075580]	Mucosa-associated lymphoid tissue lymphoma translocation protein 1 (Homo sapiens)	47
CO[C@@H](C)c1c(Nc2ccc([C@H](N(C)C(=O)[C@@H]3CCC(=O)NC3)C(F)(F)F)cc2)cnn2cc(Cl)nc12 (relative stereo) [US20250051327, Reference CPD0082472]	Mucosa-associated lymphoid tissue lymphoma translocation protein 1 (Homo sapiens)	41
CO[C@@H](C)c1c(Nc2ccc([C@H](N(C)C(=O)[C@H]3CNC(=O)C3)C(F)(F)F)cc2)cnn2cc(Cl)nc12 (relative stereo) [US20250051327, Reference CPD0082467]	Mucosa-associated lymphoid tissue lymphoma translocation protein 1 (Homo sapiens)	42

Please find the next compound below.
Req: Bench note: what IC50 did COC[C@@]1(C)CCN(c2ccc([C@H](N(C)C(=O)C3CCS(=O)(=O)CC3)C(F)(F)F)cc2)c2cnc3cc(Cl)nn3c21 [US20250051327, Reference CPD0073139] show?
Resp: 112
